- Condition summary: in n-pentyl acetate, 313.1 K
Measure name: solubility (mole fraction)

| Structure smiles | Measure name | Numeric value |
| --- | --- | --- |
| CC(=O)Oc1cc(C)c(OC(C)=O)c2ccccc12 | solubility (mole fraction) | 0.108 |

====

- Condition summary: in ethanol, 288.1 K
Measure name: solubility (mole fraction)

| Structure smiles | Measure name | Numeric value |
| --- | --- | --- |
| CC(=O)Oc1cc(C)c(OC(C)=O)c2ccccc12 | solubility (mole fraction) | 0.00417 |

====

- Condition summary: in methyl acetate, 298.1 K
Measure name: solubility (mole fraction)

| Structure smiles | Numeric value |
| --- | --- |
| CC(=O)Oc1cc(C)c(OC(C)=O)c2ccccc12 | 0.123 |

====

- Condition summary: in ethyl acetate, 283.1 K

| Structure smiles | solubility (mole fraction) |
| --- | --- |
| CC(=O)Oc1cc(C)c(OC(C)=O)c2ccccc12 | 0.0691 |

====

- Condition summary: in n-pentyl acetate, 318.1 K
Measure name: solubility (mole fraction)

| Structure smiles | Numeric value |
| --- | --- |
| CC(=O)Oc1cc(C)c(OC(C)=O)c2ccccc12 | 0.128 |

====

- Condition summary: in isopropanol, 303.1 K
Measure name: solubility (mole fraction)

| Structure smiles | Numeric value |
| --- | --- |
| CC(=O)Oc1cc(C)c(OC(C)=O)c2ccccc12 | 0.00605 |

====

- Condition summary: in methanol, 283.1 K
Measure name: solubility (mole fraction)

| Structure smiles | Measure name | Result |
| --- | --- | --- |
| CC(=O)Oc1cc(C)c(OC(C)=O)c2ccccc12 | solubility (mole fraction) | 0.00461 |

====

- Condition summary: in ethanol, 303.1 K

| Structure smiles | solubility (mole fraction) |
| --- | --- |
| CC(=O)Oc1cc(C)c(OC(C)=O)c2ccccc12 | 0.00839 |

====

- Condition summary: in methyl acetate, 283.1 K
Measure name: solubility (mole fraction)

| Structure smiles | Numeric value |
| --- | --- |
| CC(=O)Oc1cc(C)c(OC(C)=O)c2ccccc12 | 0.0839 |

====

- Condition summary: in n-propanol, 293.1 K

| Structure smiles | solubility (mole fraction) |
| --- | --- |
| CC(=O)Oc1cc(C)c(OC(C)=O)c2ccccc12 | 0.00473 |

====

- Condition summary: in methanol, 298.1 K

| Structure smiles | solubility (mole fraction) |
| --- | --- |
| CC(=O)Oc1cc(C)c(OC(C)=O)c2ccccc12 | 0.00877 |

====

- Condition summary: in ethanol, 308.1 K

| Structure smiles | solubility (mole fraction) |
| --- | --- |
| CC(=O)Oc1cc(C)c(OC(C)=O)c2ccccc12 | 0.0108 |

====

- Condition summary: in ethyl acetate, 323.1 K

| Structure smiles | solubility (mole fraction) |
| --- | --- |
| CC(=O)Oc1cc(C)c(OC(C)=O)c2ccccc12 | 0.204 |

====

- Condition summary: in isopentanol, 308.1 K

| Structure smiles | solubility (mole fraction) |
| --- | --- |
| CC(=O)Oc1cc(C)c(OC(C)=O)c2ccccc12 | 0.0102 |

====

- Condition summary: in n-propyl acetate, 313.1 K

| Structure smiles | solubility (mole fraction) |
| --- | --- |
| CC(=O)Oc1cc(C)c(OC(C)=O)c2ccccc12 | 0.138 |

====

- Condition summary: in cyclohexanol, 298.1 K
Measure name: solubility (mole fraction)

| Structure smiles | Numeric value |
| --- | --- |
| CC(=O)Oc1cc(C)c(OC(C)=O)c2ccccc12 | 0.0082 |

====

- Condition summary: in n-propanol, 283.1 K

| Structure smiles | solubility (mole fraction) |
| --- | --- |
| CC(=O)Oc1cc(C)c(OC(C)=O)c2ccccc12 | 0.00265 |

====

- Condition summary: in cyclohexanol, 293.1 K
Measure name: solubility (mole fraction)

| Structure smiles | Measure name | Numeric value |
| --- | --- | --- |
| CC(=O)Oc1cc(C)c(OC(C)=O)c2ccccc12 | solubility (mole fraction) | 0.00595 |

====

- Condition summary: in methanol, 293.1 K
Measure name: solubility (mole fraction)

| Structure smiles | Measure name | Numeric value |
| --- | --- | --- |
| CC(=O)Oc1cc(C)c(OC(C)=O)c2ccccc12 | solubility (mole fraction) | 0.0071 |

====

- Condition summary: in cyclohexanol, 308.1 K
Measure name: solubility (mole fraction)

| Structure smiles | Measure name | Numeric value |
| --- | --- | --- |
| CC(=O)Oc1cc(C)c(OC(C)=O)c2ccccc12 | solubility (mole fraction) | 0.0138 |

====

- Condition summary: in n-pentanol, 303.1 K

| Structure smiles | solubility (mole fraction) |
| --- | --- |
| CC(=O)Oc1cc(C)c(OC(C)=O)c2ccccc12 | 0.0092 |

====

- Condition summary: in ethanol, 298.1 K
Measure name: solubility (mole fraction)

| Structure smiles | Numeric value |
| --- | --- |
| CC(=O)Oc1cc(C)c(OC(C)=O)c2ccccc12 | 0.00656 |

====

- Condition summary: in n-butanol, 308.1 K
Measure name: solubility (mole fraction)

| Structure smiles | Numeric value |
| --- | --- |
| CC(=O)Oc1cc(C)c(OC(C)=O)c2ccccc12 | 0.0104 |

====

- Condition summary: in n-propyl acetate, 303.1 K
Measure name: solubility (mole fraction)

| Structure smiles | Measure name | Numeric value |
| --- | --- | --- |
| CC(=O)Oc1cc(C)c(OC(C)=O)c2ccccc12 | solubility (mole fraction) | 0.104 |

====

- Condition summary: in isopentanol, 288.1 K
Measure name: solubility (mole fraction)

| Structure smiles | Measure name | Numeric value |
| --- | --- | --- |
| CC(=O)Oc1cc(C)c(OC(C)=O)c2ccccc12 | solubility (mole fraction) | 0.00329 |

====

- Condition summary: in n-butyl acetate, 313.1 K
Measure name: solubility (mole fraction)

| Structure smiles | Measure name | Numeric value |
| --- | --- | --- |
| CC(=O)Oc1cc(C)c(OC(C)=O)c2ccccc12 | solubility (mole fraction) | 0.122 |

====

- Condition summary: in n-pentanol, 298.1 K
Measure name: solubility (mole fraction)

| Structure smiles | Numeric value |
| --- | --- |
| CC(=O)Oc1cc(C)c(OC(C)=O)c2ccccc12 | 0.00667 |

====

- Condition summary: in methanol, 308.1 K

| Structure smiles | solubility (mole fraction) |
| --- | --- |
| CC(=O)Oc1cc(C)c(OC(C)=O)c2ccccc12 | 0.0139 |

====

- Condition summary: in ethyl acetate, 313.1 K
Measure name: solubility (mole fraction)

| Structure smiles | Measure name | Numeric value |
| --- | --- | --- |
| CC(=O)Oc1cc(C)c(OC(C)=O)c2ccccc12 | solubility (mole fraction) | 0.156 |

====

- Condition summary: in n-butyl acetate, 288.1 K

| Structure smiles | solubility (mole fraction) |
| --- | --- |
| CC(=O)Oc1cc(C)c(OC(C)=O)c2ccccc12 | 0.0573 |

====

- Condition summary: in isopentanol, 313.1 K

| Structure smiles | solubility (mole fraction) |
| --- | --- |
| CC(=O)Oc1cc(C)c(OC(C)=O)c2ccccc12 | 0.0137 |

====

- Condition summary: in methanol, 313.1 K
Measure name: solubility (mole fraction)

| Structure smiles | Numeric value |
| --- | --- |
| CC(=O)Oc1cc(C)c(OC(C)=O)c2ccccc12 | 0.0173 |

====

- Condition summary: in n-propanol, 298.1 K

| Structure smiles | solubility (mole fraction) |
| --- | --- |
| CC(=O)Oc1cc(C)c(OC(C)=O)c2ccccc12 | 0.00629 |

====

- Condition summary: in n-pentanol, 288.1 K

| Structure smiles | solubility (mole fraction) |
| --- | --- |
| CC(=O)Oc1cc(C)c(OC(C)=O)c2ccccc12 | 0.00374 |

====

- Condition summary: in methanol, 303.1 K
Measure name: solubility (mole fraction)

| Structure smiles | Measure name | Numeric value |
| --- | --- | --- |
| CC(=O)Oc1cc(C)c(OC(C)=O)c2ccccc12 | solubility (mole fraction) | 0.0112 |

====

- Condition summary: in isopropanol, 283.1 K

| Structure smiles | solubility (mole fraction) |
| --- | --- |
| CC(=O)Oc1cc(C)c(OC(C)=O)c2ccccc12 | 0.00185 |

====

- Condition summary: in n-pentanol, 318.1 K

| Structure smiles | solubility (mole fraction) |
| --- | --- |
| CC(=O)Oc1cc(C)c(OC(C)=O)c2ccccc12 | 0.0219 |

====

- Condition summary: in n-propyl acetate, 298.1 K

| Structure smiles | solubility (mole fraction) |
| --- | --- |
| CC(=O)Oc1cc(C)c(OC(C)=O)c2ccccc12 | 0.0895 |

The origin of these recorded values is BigSolDB 2.1.
